molecular target: rat brain A2A adenosine receptor (Rattus norvegicus, UniProt P30543); construct: A2A receptors for rat striatal membranes; from tissue; host or cells: rat striatal membranes; test: Displacement of specific [3H]CGS 21680 binding in rat striatal membranes; conditions: rat striatal membranes, [3H]CGS 21680; Ki ± SEM, n = 3-6
Sequence (P30543 whole entry): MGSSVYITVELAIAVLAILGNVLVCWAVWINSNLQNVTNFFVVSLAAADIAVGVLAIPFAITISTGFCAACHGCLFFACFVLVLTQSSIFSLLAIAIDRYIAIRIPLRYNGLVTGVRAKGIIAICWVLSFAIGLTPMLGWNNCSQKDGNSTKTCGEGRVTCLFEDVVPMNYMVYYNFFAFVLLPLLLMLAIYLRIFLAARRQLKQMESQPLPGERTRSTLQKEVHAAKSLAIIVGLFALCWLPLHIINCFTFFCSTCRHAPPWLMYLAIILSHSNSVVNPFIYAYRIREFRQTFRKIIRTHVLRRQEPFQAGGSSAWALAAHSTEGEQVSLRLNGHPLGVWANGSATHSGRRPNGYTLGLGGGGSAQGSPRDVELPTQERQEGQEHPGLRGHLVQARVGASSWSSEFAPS
Examples of compounds with documented Ki follow.

Answered cases to consult:
{"SUBSTANCE_SMILES": "CCNC(=O)[C@H]1O[C@@H](n2cnc3c(NC(=O)c4ccccc4)ncnc32)[C@H](O)[C@@H]1O", "ASSAYED_SYSTEM": "rat brain A2A adenosine receptor (Rattus norvegicus, UniProt P30543)", "Ki": "670 nM"}
{"SUBSTANCE_SMILES": "CCNC(=O)[C@H]1O[C@@H](n2cnc3c(NC(=O)N[C@H](C)c4ccccc4)ncnc32)[C@H](O)[C@@H]1O", "ASSAYED_SYSTEM": "rat brain A2A adenosine receptor (Rattus norvegicus, UniProt P30543)", "Ki": "279 nM"}
{"SUBSTANCE_SMILES": "CCNC(=O)[C@H]1O[C@@H](n2cnc3c(NC(=O)Nc4cc(C)on4)ncnc32)[C@H](O)[C@@H]1O", "ASSAYED_SYSTEM": "rat brain A2A adenosine receptor (Rattus norvegicus, UniProt P30543)", "Ki": "884 nM"}

Inquiry: Quick check: Ki of `CCNC(=O)[C@H]1O[C@@H](n2cnc3c(NC(=O)c4ccc(OC)cc4)ncnc32)[C@H](O)[C@@H]1O` ?
Reply text: 237 nM

Inquiry: Give its Ki value. Item: `CCNC(=O)[C@H]1O[C@@H](n2cnc3c(NC(=O)Nc4nncs4)ncnc32)[C@H](O)[C@@H]1O`
Reply text: 917 nM

Inquiry: Find the recorded Ki belonging to `CCNC(=O)[C@H]1O[C@@H](n2cnc3c(NC(=O)NCc4ccccc4)ncnc32)[C@H](O)[C@@H]1O` and report it.
Reply text: 1790 nM

Inquiry: Give the measured Ki of `CCNC(=O)[C@H]1O[C@@H](n2cnc3c(N(C(=O)Nc4ccc(Cl)cn4)C(=O)Nc4ccc(Cl)cn4)ncnc32)[C@H](O)[C@@H]1O` .
Reply text: 799 nM

Inquiry: May I ask what Ki has been recorded for `CCNC(=O)[C@H]1O[C@@H](n2cnc3c(NC(=O)Nc4ccc(C(C)=O)cc4)ncnc32)[C@H](O)[C@@H]1O` ?
Reply text: 1050 nM

Inquiry: Quick check: Ki of `CCNC(=O)[C@H]1O[C@@H](n2cnc3c(NC(=O)c4ccc(-c5ccccc5)cc4)ncnc32)[C@H](O)[C@@H]1O` ?
Reply text: 3580 nM

Inquiry: Name the recorded Ki for `CCNC(=O)[C@H]1O[C@@H](n2cnc3c(NC(=O)Nc4ccc(S(N)(=O)=O)cc4)ncnc32)[C@H](O)[C@@H]1O` .
Reply text: 1180 nM

Inquiry: So what's the measured Ki for this one? `CCNC(=O)[C@H]1O[C@@H](n2cnc3c(NC(=O)N[C@@H](C)c4ccccc4)ncnc32)[C@H](O)[C@@H]1O`
Reply text: 2970 nM

Inquiry: Fill in the blank: the reported Ki of `CCNC(=O)[C@H]1O[C@@H](n2cnc3c(N(C(=O)Nc4ccc([N+](=O)[O-])cc4)C(=O)Nc4ccc([N+](=O)[O-])cc4)ncnc32)[C@H](O)[C@@H]1O` is ____.
Reply text: 2530 nM
